The following molecules each carry a recorded HepSE_Combined Scores for Hepatotoxicity.

# MOLECULE, HepSE_Combined Scores
rows = [
    ("C=C[C@H]1C[N@@]2CC[C@H]1C[C@@H]2[C@@H](O)c1ccnc2ccc(OC)cc12", 3),
    ("CN(C)CCC=C1c2ccccc2CCc2ccccc21", 3),
    ("CCN(C)C(=O)Oc1cccc([C@H](C)N(C)C)c1", 2),
    ("CC[C@H](C)C(=O)O[C@H]1C[C@H](O)C=C2C=C[C@H](C)[C@H](CC[C@@H](O)C[C@@H](O)CC(=O)O)[C@H]21", 4),
    ("NC[C@H]1O[C@H](O[C@H]2[C@H](O)[C@@H](O[C@H]3O[C@H](CO)[C@@H](O)[C@H](N)[C@H]3O)[C@H](N)C[C@@H]2N)[C@H](N)C[C@@H]1O", 0),
    ("CC(C)(O/N=C(\\C(=O)N[C@@H]1C(=O)N2C(C(=O)[O-])=C(C[n+]3ccccc3)CS[C@H]12)c1csc(N)n1)C(=O)O", 2),
    ("CO[C@@]1(NC(=O)C2SC(=C(C(N)=O)C(=O)O)S2)C(=O)N2C(C(=O)O)=C(CSc3nnnn3C)CS[C@@H]21 (some centres not stated)", 0),
]
